biological target: LZ-MALT1 (MALT1 (340-789) fused with a leucine zipper dimerization motif) (Homo sapiens); construct: His tag (N); experiment: LZ-MALT1 fluorescence assay (Ac-LRSR-AMC cleavage), screening and concentration response; details: concentration response assay, 0.122 μM to 62.5 μM; read-out: IC50 (biochemical activity, in vitro)
Sequence (Q9UDY8 with tags, fused parts or gaps limits assumed): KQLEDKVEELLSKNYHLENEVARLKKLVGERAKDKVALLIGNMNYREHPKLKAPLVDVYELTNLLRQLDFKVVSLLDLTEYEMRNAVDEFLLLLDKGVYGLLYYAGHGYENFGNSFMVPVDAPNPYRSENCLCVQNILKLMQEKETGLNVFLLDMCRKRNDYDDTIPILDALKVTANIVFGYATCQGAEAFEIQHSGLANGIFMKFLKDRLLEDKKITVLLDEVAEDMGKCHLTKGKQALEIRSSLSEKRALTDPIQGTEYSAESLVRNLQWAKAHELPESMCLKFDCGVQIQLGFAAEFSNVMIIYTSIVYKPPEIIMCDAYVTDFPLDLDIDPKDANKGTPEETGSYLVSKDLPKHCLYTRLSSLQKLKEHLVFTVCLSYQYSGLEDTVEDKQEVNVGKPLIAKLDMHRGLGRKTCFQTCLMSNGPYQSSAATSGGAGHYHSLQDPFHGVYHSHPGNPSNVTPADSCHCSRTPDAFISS
measured_quantity: IC50

Q: Enter reported IC50 observed with LZ-MALT1 (MALT1 (340-789) fused with a leucine zipper dimerization motif) (Homo sapiens) for `COCCOc1nc(-c2ccc(Cl)c(Cl)c2)n(-c2ccc(NC(=O)CCl)cc2)n1`
Ans: ~5 µM
